Hello, the source for this data is patent US6727237B2, in case you need it.

Target: bacterial NAD synthetase enzyme (Bacillus subtilis)
Sequence (P08164 2-272 limits assumed): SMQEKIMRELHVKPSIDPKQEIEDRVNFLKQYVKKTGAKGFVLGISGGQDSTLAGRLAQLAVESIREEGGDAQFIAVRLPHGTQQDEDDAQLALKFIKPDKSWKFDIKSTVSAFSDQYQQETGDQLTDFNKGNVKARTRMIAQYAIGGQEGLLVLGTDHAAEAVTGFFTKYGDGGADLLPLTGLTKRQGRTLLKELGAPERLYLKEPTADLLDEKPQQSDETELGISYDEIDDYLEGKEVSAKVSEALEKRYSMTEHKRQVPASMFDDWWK
Experiment: biochemical
Format: biochemical
Conditions: compound at 0.2 mM (Table 312A)
Label 1 when % Inhibition is strictly below 20%; at or above that, label -1.

| structure smiles | class label |
| --- | --- |
| CC(C)c1ccc2[nH]c(CCCCCCC[n+]3cccc4ccccc43)cc2c1 | 1 |
| Cc1ccc2[nH]c(CCCCCCCC[n+]3ccccc3)cc2c1 | -1 |
| COc1ccc2[nH]c(CCCCCCCC[n+]3ccc4ccccc4c3)cc2c1 | -1 |
| O=[N+]([O-])c1ccc2[nH]c(CCCCCCCC[n+]3ccccc3)cc2c1 | 1 |
| c1ccc2c[n+](CCCCc3cc4ccccc4[nH]3)ccc2c1 | -1 |
| O=C(c1ccccc1)c1ccc2[nH]c(CCCCCCC[n+]3ccc4ccccc4c3)cc2c1 | 1 |
| COC(=O)c1ccc2[nH]c(CCCCC[n+]3ccc4ccccc4c3)cc2c1 | -1 |
| FC(F)(F)c1ccc2cc(CCCCCCCC[n+]3cccc4ccccc43)[nH]c2c1 | 1 |
| c1ccc(-c2ccc3[nH]c(CCCCC[n+]4ccc5ccccc5c4)cc3c2)cc1 | 1 |
| FC(F)(F)c1ccc2[nH]c(CCCCCCCC[n+]3cccc4ccccc43)cc2c1 | 1 |
| CC(C)c1ccc2[nH]c(CCCCC[n+]3cccc4ccccc43)cc2c1 | -1 |
| Fc1cc(F)c2[nH]c(CCC[n+]3ccccc3)cc2c1 | 1 |
| CCCCc1ccc2[nH]c(CCCCCCCC[n+]3cccc4ccccc43)cc2c1 | 1 |
| Cc1ccc2[nH]c(CCCCC[n+]3ccc4ccccc4c3)cc2c1 | 1 |
| CCCCc1ccc2[nH]c(CCCCCCCC[n+]3ccc4ccccc4c3)cc2c1 | -1 |
| C[n+]1cccc(C(=O)OCCCCCn2ccc3cc([N+](=O)[O-])ccc32)c1 | 1 |
| FC(F)(F)c1ccc2cc(CCCCCCCC[n+]3ccc4ccccc4c3)[nH]c2c1 | -1 |
| O=C(OCCCCCCCc1cc2cc(Oc3ccccc3)ccc2[nH]1)c1cccnc1 | 1 |
| O=[N+]([O-])c1cc([N+](=O)[O-])c2[nH]c(CCCCCCC[n+]3cccc4ccccc43)cc2c1 | 1 |
| O=C(O)c1ccc2[nH]c(CCCCC[n+]3ccccc3)cc2c1 | -1 |
